Below, each entry is listed with its recorded TGI.
Test system: K-562 leukemia
run description: NCI tumour cell line growth inhibition, 48 h

As a guide, the following entries are already answered.
compound: COc1cc(/C=C/C(=O)c2cccc(-n3cc(-c4ccc(Cl)cc4)[nH]c3=O)c2)cc(OC)c1OC
test target: K-562 leukemia
TGI: > 100 µM

compound: CCOC(=O)C(=CNc1ccc(NC2=NCC(C)S2)cc1)C(=O)OCC (configuration not stated)
test target: K-562 leukemia
TGI: 4.69 µM

-- ask Entry under review: Cc1cc(C)nc(NS(=O)(=O)c2ccc(NC(=O)c3cccc4c(Nc5ccc(S(=O)(=O)Nc6cc(C)on6)cc5)c5ccccc5nc34)cc2)n1 . Reported TGI?
-- reply 80.6 µM

-- ask Look up TGI for this compound: COc1ccc(/C=C2\CCC(C)(CN(C)C)C2=O)cc1OC (configuration not stated)
-- reply > 100 µM

-- ask // query TGI value for entry N#CCCN1C/C(=C/c2ccc(Cl)cc2)C(=O)/C(=C/c2ccc(Cl)cc2)C1
-- reply > 100 µM

-- ask Tell me the measured TGI of O=C(c1nc2ccccc2[nH]c1=O)C(O)c1ccccc1 (configuration not stated) , please.
-- reply > 100 µM

-- ask Record request: TGI value, item C[C@]12CC[C@@H]3c4cc(OC(F)F)c(OS(N)(=O)=O)cc4CC[C@H]3[C@@H]1CC[C@@H]2O
-- reply > 100 µM

* * *

Measured TGI accompanies every entry in the list below.
System: RXF-631 renal
run description: NCI tumour cell line growth inhibition, 48 h

compound: CCCCCCCCCCCCC(Br)C(=O)NCC(N)=O (stereo not drawn)
TGI: 18.4 µM

-- ask Hi! What's the reported TGI for C[N+](C)(C)CC1CCCC1=O (stereo not drawn) on RXF-631 renal?
-- reply 32.1 µM

-- ask Can you look up TGI on RXF-631 renal for Cc1ccc(C)c(N2C(=O)C(=O)C(c3nc4ccccc4s3)/C(=N/NC(=O)NN)C2=O)c1 (stereo not drawn) ?
-- reply > 100 µM

-- ask Return TGI measured with RXF-631 renal given this compound: CCN(CC)c1ccc2c(c1)Oc1ccc(N(CC)CC)cc1C21Oc2ccccc2-c2c1c1ccccc1n2CC (stereo not drawn)
-- reply > 100 µM

-- ask Recall the recorded TGI for O=C1Nc2ccccc2N=CC1NC(=O)C(c1ccccc1)c1ccccc1 (stereo not drawn) with RXF-631 renal and state it.
-- reply > 100 µM

-- ask Checklist item: TGI tested on RXF-631 renal, entry Nc1[nH]c(=O)nc2c1cnn2C1CCCCO1 (stereo not drawn) , value?
-- reply > 100 µM

-- ask Query TGI on RXF-631 renal for COC1C(N)C(OC2C(Oc3cccc4c(O)c5c(=O)oc6ccc(C)c7c(=O)oc(c34)c5c67)OC(C)C(O)C2(C)O)OC(C)C1O (stereo not drawn)
-- reply 1.45 µM

-- ask Lab note: need TGI for CCOP1(=O)C=C(C)C(Cl)=C(C)C1 (stereo not drawn) on RXF-631 renal, anyone have it?
-- reply 30.5 µM

* * *

Form field: TGI (one value per entry).
Test system: SK-OV-3 ovarian
run description: NCI tumour cell line growth inhibition, 48 h

Some solved cases for reference:
compound: Oc1c(I)cc(I)c2cccnc12
result: 29.2 µM
//
compound: Nc1ncnc2oc(C3OC(COC(=O)c4ccccc4)C(OC(=O)c4ccccc4)C3OC(=O)c3ccccc3)nc12 (configuration not stated)
result: > 100 µM
//
compound: C[N+](C)(C)c1ncnc2c1ncn2C1CC(O)C(CO)O1 (configuration not stated)
result: > 100 µM
//
compound: C[C@]12C[C@@H](OC(=O)[C@]1(C)O)[C@@H]([C@]1(O)CC[C@H]3[C@@H]4C[C@H]5O[C@]56C[C@H]5O[C@H]5C(=O)[C@]6(C)[C@H]4CC[C@@]31C)C2
result: > 50 µM
//
compound: O=[N+]([O-])c1ccc(C(=S)Nc2ccccc2)o1
result: 24 µM

-- ask If you can, please state the reported TGI value of C#CCNC(=O)[C@H](CC)[C@H]1CC[C@H](C)[C@H]([C@@H](C)[C@H](O)[C@H](C)C(=O)[C@H](CC)C2O[C@]3(C=CC(=O)[C@]4(CC[C@@](C)([C@H]5CC[C@](O)(CC)[C@H](C)O5)O4)O3)[C@H](C)C[C@@H]2C)O1 (some centres not stated) .
-- reply > 100 µM

-- ask Quick check: TGI of O=c1[nH]cc(F)c(=O)n1C1OC(CO)C(O)C1O (configuration not stated) ?
-- reply > 100 µM

-- ask So what's the measured TGI for this one? COc1ccc(OC)c(N(CN2C(=O)CCC2C(=O)O)C(C)=O)c1 (configuration not stated)
-- reply > 100 µM

-- ask Please report the recorded TGI for CCOC(=O)/C(C#N)=C(O)/C(=C\c1ccc(Br)cc1)NC(=O)c1ccccc1 .
-- reply > 100 µM

-- ask Query (compound): Cc1cc(C)nc(NS(=O)(=O)c2ccc(Nc3c4ccccc4nc4c(C(=O)Nc5ccc(S(=O)(=O)N=C(N)N)cc5)cccc34)cc2)n1 ; field requested: TGI
-- reply > 100 µM

-- ask Reported TGI, compound CCOC(=O)C1(F)S(=O)(=O)OCCOS1(=O)=O : ____
-- reply > 100 µM
